Experiment: Cytotoxicity against BALB/c mouse Splenocyte assessed as reduction in cell viability incubated for 48 hrs by MTT assay
Type: toxicity, cell-based
Details: splenocytes
Each entry below carries its reported CC50 at 48 h.

cpd_smiles	censoring_operator	CC50 at 48 h [µM]
COC(=O)C1=C(C[C@@H](C)[C@]2(C)C(=O)[C@]3(C)C(C)=C[C@H]4[C@]5(C=O)CC[C@H](OC(C)=O)C(C)(C)[C@H]5CC[C@]4(C)[C@]3(C(=O)OC)C2=O)O[C@](C)(/C=C/C=C/[C@H](C)O)C1=O	>	50
COC(=O)[C@@]12C(=O)[C@](C)(Cc3c(O)c(C)cc(C(C)=O)c3O)C(=O)[C@]1(C)C(C)=C[C@H]1[C@]3(CO)CC[C@H](OC(C)=O)C(C)(C)[C@H]3CC[C@@]12C	>	50
COC(=O)[C@@]12C(=O)[C@](C)(C(=O)c3cc(OC)c(O)c(O)c3C(C)=O)C(=O)[C@]1(C)C(C)=C[C@H]1[C@]3(C=O)CC[C@H](OC(C)=O)C(C)(C)[C@H]3CC[C@@]12C	=	44
COC(=O)[C@@]12C(=O)[C@](C)(C(=O)c3cc(OC)c(O)c(O)c3C(C)=O)C(=O)[C@]1(C)C(C)=C[C@H]1[C@]3(C)CC[C@H](OC(C)=O)C(C)(C)[C@H]3CC[C@@]12C	=	21
COC(=O)[C@@]12C(=O)[C@](C)(Cc3c(O)c(C)cc(C(C)=O)c3O)C(=O)[C@]1(C)C(C)=C[C@H]1[C@]3(C=O)CC[C@H](OC(C)=O)C(C)(C)[C@H]3CC[C@@]12C	>	50

----------
Assay: Selectivity index, ratio of CC50 for cytotoxicity against human HEp-2 cells to EC50 for antiviral activity against Respiratory syncytial virus infected in human HEp-2 cells
Assay type: toxicity, cell-based
Settings: read-out: Ratio CC50/EC50
readout_name: selectivity ratio

> print(dat)
                                 cpd.smiles  experimental.value
1  NC(=O)c1ncn([C@@H]2O[C@H](CO)[C@@H](O)[C@H]2O)n1                  18

----------
Tested on: Respiratory syncytial virus
Experiment: Antiviral activity against Respiratory syncytial virus infected in human HEp-2 cells assessed as inhibition of virus-induced cytopathic effect measured after 6 days by CellTiter-Glo assay
Assay type: functional, organism-based
Conditions: HEp-2, 144 h
readout_name: EC50 (µM)

> print(dat)
                                 cpd.smiles  experimental.value
1  NC(=O)c1ncn([C@@H]2O[C@H](CO)[C@@H](O)[C@H]2O)n1                 5.4

----------
Each entry below carries its reported CC50 at 48 h.
Experiment: Cytotoxicity against BALB/c mouse Splenocyte assessed as reduction in cell viability incubated for 48 hrs by MTT assay
Assay type: toxicity, cell-based
Details: splenocytes
readout_name: CC50 at 48 h (µM)

cpd_smiles	unit_annotation	experimental_value
CC/C=C/C=C/[C@@]1(C)OC(C[C@H](C)[C@]2(C)C(=O)[C@]3(C)C(C)=C[C@H]4[C@]5(C=O)CC[C@H](OC(C)=O)C(C)(C)[C@H]5CC[C@]4(C)[C@]3(C(=O)OC)C2=O)=C(C(=O)OC)C1=O	µM	19
CC/C=C/C=C/[C@@]1(C)OC(C[C@@H](C)[C@]2(C)C(=O)[C@]3(C)C(C)=C[C@H]4[C@]5(C=O)CC[C@H](OC(C)=O)C(C)(C)[C@H]5CC[C@]4(C)[C@]3(C(=O)OC)C2=O)=C(C(=O)OC)C1=O	µM	26

----------
Tested on: Splenocyte
Assay: Immunosuppressive activity in BALB/c mouse splenocytes assessed as reduction in LPS-induced mouse B-lymphocytes proliferation incubated for 48 hrs by MTT assay
Type: functional, cell-based
Each entry below carries its reported EC50.

molecule	censoring_operator	EC50 [µM]
COC(=O)C1=C(C[C@@H](C)[C@]2(C)C(=O)[C@]3(C)C(C)=C[C@H]4[C@]5(C=O)CC[C@H](OC(C)=O)C(C)(C)[C@H]5CC[C@]4(C)[C@]3(C(=O)OC)C2=O)O[C@](C)(/C=C/C=C/[C@H](C)O)C1=O	=	12
COc1c(C)c2c(c(O)c1C/C=C(\C)CCC(=O)OCCN1CCOCC1)C(=O)OC2 [MYCOPHENOLATE MOFETIL]	=	0.48
COC(=O)[C@@]12C(=O)[C@](C)(C(=O)c3cc(OC)c(O)c(O)c3C(C)=O)C(=O)[C@]1(C)C(C)=C[C@H]1[C@]3(C)CC[C@H](OC(C)=O)C(C)(C)[C@H]3CC[C@@]12C	=	8.8
CC/C=C/C=C/[C@@]1(C)OC(C[C@H](C)[C@]2(C)C(=O)[C@]3(C)C(C)=C[C@H]4[C@]5(C=O)CC[C@H](OC(C)=O)C(C)(C)[C@H]5CC[C@]4(C)[C@]3(C(=O)OC)C2=O)=C(C(=O)OC)C1=O	=	8.5
COC(=O)[C@@]12C(=O)[C@](C)(Cc3c(O)c(C)cc(C(C)=O)c3O)C(=O)[C@]1(C)C(C)=C[C@H]1[C@]3(C=O)CC[C@H](OC(C)=O)C(C)(C)[C@H]3CC[C@@]12C	>	50

----------
Assay: Selectivity index, ratio of CC50 for cytotoxicity in BALB/c mouse splenocytes to EC50 for immunosuppressive activity in BALB/c mouse splenocytes assessed as reduction in LPS-induced mouse B-lymphocytes proliferation
Assay type: toxicity, cell-based
Conditions: read-out: Ratio CC50/EC50

cpd_smiles	censoring_operator	selectivity ratio
CC/C=C/C=C/[C@@]1(C)OC(C[C@@H](C)[C@]2(C)C(=O)[C@]3(C)C(C)=C[C@H]4[C@]5(C=O)CC[C@H](OC(C)=O)C(C)(C)[C@H]5CC[C@]4(C)[C@]3(C(=O)OC)C2=O)=C(C(=O)OC)C1=O	=	3.5
COC(=O)[C@@]12C(=O)[C@](C)(Cc3c(O)c(C)cc(C(C)=O)c3O)C(=O)[C@]1(C)C(C)=C[C@H]1[C@]3(CO)CC[C@H](OC(C)=O)C(C)(C)[C@H]3CC[C@@]12C	>	1
COC(=O)C1=C(C[C@@H](C)[C@]2(C)C(=O)[C@]3(C)C(C)=C[C@H]4[C@]5(C=O)CC[C@H](OC(C)=O)C(C)(C)[C@H]5CC[C@]4(C)[C@]3(C(=O)OC)C2=O)O[C@](C)(/C=C/C=C/[C@H](C)O)C1=O	>	4.2
CC/C=C/C=C/[C@@]1(C)OC(C[C@H](C)[C@]2(C)C(=O)[C@]3(C)C(C)=C[C@H]4[C@]5(C=O)CC[C@H](OC(C)=O)C(C)(C)[C@H]5CC[C@]4(C)[C@]3(C(=O)OC)C2=O)=C(C(=O)OC)C1=O	=	2.2
COC(=O)[C@@]12C(=O)[C@](C)(C(=O)c3cc(OC)c(O)c(O)c3C(C)=O)C(=O)[C@]1(C)C(C)=C[C@H]1[C@]3(C=O)CC[C@H](OC(C)=O)C(C)(C)[C@H]3CC[C@@]12C	=	1.9
COC(=O)[C@@]12C(=O)[C@](C)(C(=O)c3cc(OC)c(O)c(O)c3C(C)=O)C(=O)[C@]1(C)C(C)=C[C@H]1[C@]3(C)CC[C@H](OC(C)=O)C(C)(C)[C@H]3CC[C@@]12C	=	2.4

----------
Tested on: Splenocyte
Experiment: Immunosuppressive activity in BALB/c mouse splenocyte assessed as reduction in ConA-induced mouse T-lymphocytes proliferation incubated for 48 hrs by MTT assay
Assay type: functional, cell-based
readout_name: EC50

cpd_smiles	readout_name	experimental_value
CC/C=C/C=C/[C@@]1(C)OC(C[C@H](C)[C@]2(C)C(=O)[C@]3(C)C(C)=C[C@H]4[C@]5(C=O)CC[C@H](OC(C)=O)C(C)(C)[C@H]5CC[C@]4(C)[C@]3(C(=O)OC)C2=O)=C(C(=O)OC)C1=O	EC50	8.5 µM
COC(=O)C1=C(C[C@@H](C)[C@]2(C)C(=O)[C@]3(C)C(C)=C[C@H]4[C@]5(C=O)CC[C@H](OC(C)=O)C(C)(C)[C@H]5CC[C@]4(C)[C@]3(C(=O)OC)C2=O)O[C@](C)(/C=C/C=C/[C@H](C)O)C1=O	EC50	27 µM
COC(=O)[C@@]12C(=O)[C@](C)(C(=O)c3cc(OC)c(O)c(O)c3C(C)=O)C(=O)[C@]1(C)C(C)=C[C@H]1[C@]3(C)CC[C@H](OC(C)=O)C(C)(C)[C@H]3CC[C@@]12C	EC50	11 µM
